B1: OR4K15 (parent)
chain: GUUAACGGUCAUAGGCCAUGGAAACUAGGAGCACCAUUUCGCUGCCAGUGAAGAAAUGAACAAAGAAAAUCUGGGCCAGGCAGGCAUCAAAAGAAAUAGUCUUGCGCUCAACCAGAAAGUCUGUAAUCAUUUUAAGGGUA

variants of: B1; experiment: self-cleavage, relative activity (ratio to wild type); higher = more cleavage; in vitro, sequencing; the parent is a self-cleaving ribozyme

{"columns": ["mutationId", "self-cleavage"],
 "data": [
  ["A67U U120A", 2.17],
  ["A62U U130C", 0.84],
  ["U43C U139A", 1.3],
  ["A55C G79A", 0.49],
  ["A86G A89C", 0.67],
  ["U43A A51G", 1.64],
  ["G29U A90G", 1.1],
  ["A92G A134G", 0.98],
  ["G41A A125C", 0.19],
  ["U102C A110U", 1.94],
  ["A11G U97C", 1.42],
  ["A4G A118G", 1.01],
  ["U72C G83A", 0.08],
  ["C35U A94G", 0.64],
  ["A92C A114G", 0.98],
  ["A60G A95G", 1.63],
  ["A47G", 0.96],
  ["A13G G53A", 1.11],
  ["A24G U57G", 0.4],
  ["A52G A116C", 0.11],
  ["A68G U131C", 0.99],
  ["A4U A95G", 1.65],
  ["A11G U39C", 0.96],
  ["A22U A95G", 0.94],
  ["C40U A52G", 1.54],
  ["U39A A96U", 1.71],
  ["A18G U19G", 0.71],
  ["A30G U72C", 0.24],
  ["A22G A24G", 1],
  ["U3C A68G", 0.86]
]}
